B1: HDV Ribozyme (parent)
chain: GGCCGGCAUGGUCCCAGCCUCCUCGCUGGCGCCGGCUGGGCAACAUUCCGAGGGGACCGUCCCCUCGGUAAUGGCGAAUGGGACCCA

Variants of: B1
Test: self-cleavage, relative activity (ratio to wild type); higher = more cleavage; co-transcriptional
Tick 1 (yes) if self-cleavage is 0.4 or greater. Tick 0 (no) if self-cleavage is less than 0.4.

1) G2C G29A ... 0 (no)
2) C32G A78U ... 0 (no)
3) C4G C66U ... 1 (yes)
4) U27C U65A ... 1 (yes)
5) U9A G50U ... 1 (yes)
6) C15A U47A ... 1 (yes)
7) U9A U37C ... 1 (yes)
8) U27A A77C ... 0 (no)
9) G40A U47A ... 1 (yes)
10) A78C G82U ... 0 (no)
11) C15G G67A ... 1 (yes)
12) C21U C36A ... 0 (no)
13) G10A C66U ... 1 (yes)
14) C15G U79A ... 0 (no)
15) A42U G55C ... 1 (yes)
16) G40A A87G ... 1 (yes)
17) A16G U72A ... 1 (yes)
18) C15G G67C ... 1 (yes)
19) C48A C57A ... 1 (yes)
20) G38U C58G ... 0 (no)
21) U46C G54C ... 1 (yes)
22) G50C G52A ... 1 (yes)
23) G40U C84A ... 0 (no)
24) G25C G68C ... 0 (no)
25) C7A C62G ... 0 (no)
26) G50C C75U ... 0 (no)
27) U12C G52A ... 1 (yes)
28) G17C C18U ... 0 (no)
29) G6U U60G ... 0 (no)
30) C4A C36A ... 0 (no)
31) G25C G31C ... 0 (no)
32) G82C A83C ... 0 (no)
33) G35U A71C ... 0 (no)
34) C13A G73C ... 0 (no)
35) A42U U46G ... 0 (no)
36) U23C U27A ... 1 (yes)
37) G31A G76A ... 1 (yes)
38) C14U C21U ... 0 (no)
39) G39C C66G ... 0 (no)
40) C30U U37C ... 1 (yes)
41) C24G C30U ... 0 (no)
42) G35A C85A ... 1 (yes)
43) G59A A83U ... 1 (yes)
44) C44A ... 1 (yes)
45) C36A A77U ... 0 (no)
46) A16C G40A ... 1 (yes)
47) C7G C63A ... 0 (no)
48) G35C A77G ... 0 (no)
49) C49G G67A ... 1 (yes)
50) A42G G55U ... 0 (no)
51) C13U G67A ... 1 (yes)
52) U72G C75A ... 0 (no)
53) G2A G54A ... 0 (no)
54) C63U G68C ... 1 (yes)
55) C24A A51U ... 1 (yes)
56) G31U G68A ... 0 (no)
57) G10C G28A ... 0 (no)
58) U27G G76A ... 1 (yes)
59) G17C C62G ... 0 (no)
60) G40U C64G ... 1 (yes)
61) C61U C64A ... 1 (yes)
62) G2U G80C ... 0 (no)
63) C4A U79A ... 0 (no)
64) G10C A83U ... 1 (yes)
65) C18G G67C ... 0 (no)
66) G25A G81U ... 0 (no)
67) G59U A77U ... 1 (yes)
68) U72C U79C ... 0 (no)
69) G53A G74C ... 0 (no)
70) U47A A56C ... 1 (yes)
71) A16G G50U ... 1 (yes)
72) G35C A43C ... 0 (no)
73) U20C U79G ... 0 (no)
74) C32A G34A ... 0 (no)
75) G59C C64A ... 1 (yes)
76) C44G C63A ... 1 (yes)
77) C61G A77G ... 1 (yes)
78) C3A C48A ... 1 (yes)
79) G67C U79G ... 1 (yes)
